Biological target: Prostaglandin G/H synthase 2 (Ovis aries)
Sequence (P79208 whole entry): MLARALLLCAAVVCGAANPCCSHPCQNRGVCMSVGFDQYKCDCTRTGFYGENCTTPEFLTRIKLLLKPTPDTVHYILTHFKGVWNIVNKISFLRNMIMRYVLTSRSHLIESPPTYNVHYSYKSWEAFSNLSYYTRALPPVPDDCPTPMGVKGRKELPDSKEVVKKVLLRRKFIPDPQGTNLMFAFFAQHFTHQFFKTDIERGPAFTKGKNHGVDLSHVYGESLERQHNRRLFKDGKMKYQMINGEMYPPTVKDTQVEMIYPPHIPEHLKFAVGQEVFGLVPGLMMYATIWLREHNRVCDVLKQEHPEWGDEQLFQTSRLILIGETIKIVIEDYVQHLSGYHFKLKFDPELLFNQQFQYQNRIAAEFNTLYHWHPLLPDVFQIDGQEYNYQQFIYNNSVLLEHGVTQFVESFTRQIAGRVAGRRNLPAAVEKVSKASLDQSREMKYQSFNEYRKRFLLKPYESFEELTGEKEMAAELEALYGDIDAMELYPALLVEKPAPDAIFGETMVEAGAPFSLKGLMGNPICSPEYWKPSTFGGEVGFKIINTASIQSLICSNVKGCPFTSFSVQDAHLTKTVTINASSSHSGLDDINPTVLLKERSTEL
Test: Inhibition of ovine COX2 using arachidonic acid as substrate assessed as reduction in PGF2alpha production preincubated for 5 mins followed by substrate addition measured after 2 mins by enzyme immunoassay

SMILES_STRING: CCCCC(=C(c1ccccc1)c1ccccc1)c1ccc(S(C)(=O)=O)cc1
IC50 / nM: 14
